So I've got a bunch of compounds here, and I need their IC50 values.
target: CDK2/Cyclin E complex (Homo sapiens, UniProt P24941); test: CDK2/Cyclin E fluorescence-based microfluidic mobility shift assay (CDK2 Biochemical Caliper Assay); settings: read-out: Biochemical CDK2/CyclinE Caliper IC50

Please review the following examples before continuing.
Just so you know, measured IC50 for CC(C)c1ccnnc1O[C@H]1CO[C@@H](c2cc(Nc3nccc4ncsc34)n[nH]2)C1 came out at ≤ 0.1 µM

The compound listed as COCc1cc(C(=O)Nc2cc([C@H]3CC[C@@H](Oc4nnccc4C4CCC4)C3)[nH]n2)n(C)n1 (single isomer, unassigned) shows IC50 equal to ≤ 0.1 µM

For this compound ( CC(C)(C)n1cnnc1O[C@H]1CO[C@@H](c2cc(Nc3nccn4nccc34)n[nH]2)C1 ), measured IC50 is ≤ 0.1 µM

For c1ccc(-c2ncnc(Nc3cc(C4CCCC4)[nH]n3)n2)cc1 the compound record lists IC50 as 1 to 100 µM

Consider Cc1cc(CC(=O)Nc2cc([C@@H]3CC[C@H](N4CC(C)(C)NC4=O)C3)[nH]n2)on1 (single isomer, unassigned) . Its measured IC50 is 0.1 to 0.25 µM

Please fill in: IC50 reported for Cc1cc(CC(=O)Nc2cc(C3CCCN3)[nH]n2)on1 (centres unmarked) = 1 to 100 µM

# IC50 (compound: CC(C)c1ccnnc1O[C@H]1CO[C@@H](c2cc(Nc3nccn4nccc34)n[nH]2)C1 ) is ≤ 0.1 µM

Item: COCc1cc2c(Nc3cc([C@H]4C[C@@H](OC(=O)N[C@@H](C)C5(C)COC5)CO4)[nH]n3)nccn2n1 | IC50: 0.1 to 0.25 µM

Give one value of IC50 per listed compound.
1. c1cncc(O[C@H]2CC[C@@H](c3cc(Nc4ncnc5ncccc45)n[nH]3)C2)c1 (single isomer, unassigned)
2. COCc1cc(C(=O)Nc2cc([C@H]3C[C@@H](COc4cccnc4)C3)[nH]n2)n(C)n1
3. Cc1cc(CC(=O)Nc2cc([C@H]3CC[C@@H](NC(=O)[C@H](O)C(C)C)C3)[nH]n2)on1 (single isomer, unassigned)
4. COCc1cc2c(Nc3cc([C@H]4C[C@@H](OC(=O)NC5(CF)CC5)CO4)[nH]n3)nccn2n1

[out]
1: 0.25 to 1 µM; 2: 1 to 100 µM; 3: 1 to 100 µM; 4: ≤ 0.1 µM

Working through the 7 compounds below one at a time, give IC50 for each.
1. COCc1cc(C(=O)Nc2cc([C@H]3C[C@@](C)(CC(=O)NC(C)C)C3)[nH]n2)n(C)n1
2. CC(C)(C)n1cnnc1OC[C@H]1C[C@@H](c2cc(Nc3nccn4nccc34)n[nH]2)C1
3. c1cc2c(Nc3cc(C4CCCC4)[nH]n3)ncnn2c1
4. CCOCc1cc(C(=O)Nc2cc([C@H]3C[C@H](COC(=O)NC(C)C)C3)[nH]n2)n(C)n1
5. Cc1ncccc1OC[C@H]1C[C@@H](c2cc(Nc3nccn4nccc34)n[nH]2)C1
6. COCc1cc(C(=O)Nc2cc([C@H]3CC[C@@H](OC(=O)NC(C)C)CC3)[nH]n2)n(C)n1
7. Cc1ncccc1O[C@@H]1CC[C@H](c2cc(Nc3nccn4nccc34)n[nH]2)C1 (single isomer, unassigned)

[out]
["1 to 100 µM", "≤ 0.1 µM", "1 to 100 µM", "1 to 100 µM", "0.1 to 0.25 µM", "0.25 to 1 µM", "0.25 to 1 µM"]

Hello, I would appreciate it if you could give IC50 for each entry below.
1. Cc1nc(Nc2cc(C3CCCC3)[nH]n2)cc2nncn12
2. Cn1nc(OC(F)(F)Cl)cc1C(=O)Nc1cc([C@H]2C[C@@H](OC(=O)NC3(C)CC3)CO2)[nH]n1

[out]
1. 1 to 100 µM
2. ≤ 0.1 µM

Could you report IC50 for every entry in the following list?
1. COCc1cc(C(=O)Nc2cc([C@H]3C[C@H](CC(=O)NC(C)C)C3)[nH]n2)n(C)n1
2. COCc1cn2c(Nc3cc([C@H]4C[C@@H](OC(=O)NC5(C)CC5)CO4)[nH]n3)nccc2n1
3. Cc1cc(CC(=O)Nc2cc([C@H]3CC[C@@H](NC(=O)CC(C)C)C3)[nH]n2)on1 (single isomer, unassigned)
4. COCc1cc(C(=O)Nc2cc([C@@H]3CC[C@@H](c4ccc(C)nn4)C3)[nH]n2)n(C)n1 (single isomer, unassigned)
5. COCc1cc2c(Nc3cc([C@H]4C[C@@H](OC(=O)NC(C)(C)C#N)CO4)[nH]n3)nccn2n1
6. COCc1cc2c(Nc3cc([C@H]4C[C@@H](OC(=O)NC5(C(F)(F)F)CC5)CO4)[nH]n3)nccn2n1

[out]
1: 1 to 100 µM; 2: ≤ 0.1 µM; 3: 1 to 100 µM; 4: 1 to 100 µM; 5: ≤ 0.1 µM; 6: ≤ 0.1 µM

Parameters: items (list). Returns: IC50 for each item.
1. CC(=O)Nc1cc([C@H]2CC[C@@H](Oc3nnccc3C(C)C)C2)[nH]n1 (single isomer, unassigned)
2. Cn1nc(C(F)(F)F)cc1C(=O)Nc1cc([C@H]2C[C@@H](OC(=O)NC3(C)CC3)CO2)[nH]n1

[out]
["≤ 0.1 µM", "≤ 0.1 µM"]
